Hello, the source for this data is patent US20240391954A1, in case you need it.

# MC4R selectivity vs MC1R per entry
Test system: human MC4R receptor (human, UniProt P32245 1-332)
Sequence (P32245 whole entry): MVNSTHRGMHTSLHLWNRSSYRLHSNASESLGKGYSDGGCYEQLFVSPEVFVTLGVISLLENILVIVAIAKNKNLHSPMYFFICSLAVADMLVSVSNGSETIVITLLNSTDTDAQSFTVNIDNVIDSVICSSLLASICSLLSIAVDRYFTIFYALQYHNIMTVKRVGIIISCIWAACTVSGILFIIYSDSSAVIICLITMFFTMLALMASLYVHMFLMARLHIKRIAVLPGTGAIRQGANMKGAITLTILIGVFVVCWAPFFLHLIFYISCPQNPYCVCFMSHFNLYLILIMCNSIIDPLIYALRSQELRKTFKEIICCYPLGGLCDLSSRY
Assay method text: cell-based or functional assay
Starred links: 1 amine or outer side, 2 acyl side, 3 side chain; linkers in the order of their positions; H or OH if unused. Positions of bridges follow the written chain, without caps; N, C: chain ends. Non-standard residues stand in square brackets, D forms with d. Primed or numbered codes have the meaning given here. dTyr(4-OMe)″ = O-methyl-D-tyrosine, COc1ccc(C[C@@H](N[*:1])C(=O)[*:2])cc1; Cit = NC(=O)NCCC[C@H](N)C(=O)O; NMeA = CN[C@@H](C)C(=O)O; Nle = CCCC[C@H](N)C(=O)O; Aib = CC(C)(N)C(=O)O
Answer using only a numeral; do not append any unit.

Below are worked cases with known answers.
binder="Ac-RC[Aib][Cit][dTyr(4-OMe)″]RFC-NH2 (disulfide 2-8) [CTX-1299]" numeric_readout=3.66
binder="Ac-RC[NMeA]R[dF]R[dW]C-NH2 (disulfide 2-8; SMILES CC(=O)N[C@@H](CCCNC(=N)N)C(=O)N[C@H]1CSSC[C@@H](C(N)=O)NC(=O)[C@@H](Cc2c[nH]c3ccccc23)NC(=O)[C@H](CCCNC(=N)N)NC(=O)[C@@H](Cc2ccccc2)NC(=O)[C@H](CCCNC(=N)N)NC(=O)[C@H](C)N(C)C1=O) [CTX-1269]" numeric_readout=2.56

Turning now to a further record.
What value of measured MC4R selectivity vs MC1R is listed for Ac-R[Nle]C[Cit][dF]R[dW]C-NH2 (disulfide 3-8; SMILES CCCC[C@H](NC(=O)[C@H](CCCNC(=N)N)NC(C)=O)C(=O)N[C@H]1CSSC[C@@H](C(N)=O)NC(=O)[C@@H](Cc2c[nH]c3ccccc23)NC(=O)[C@H](CCCNC(=N)N)NC(=O)[C@@H](Cc2ccccc2)NC(=O)[C@H](CCCNC(N)=O)NC1=O) [CTX-1608] ? 2.07
